Where do the numbers come from? From the DeepSol protein solubility set.

test: soluble on expression in E. coli; label from the status in PepcDB or PDB records
Measurement Name: soluble on expression in E. coli

>>> reported_measurement("MGYIEDMRNLVGNHPLILIGSHAIILNEKDEVLLQLRTDFNRWGIIGGALEYNETLEDALKREVFEETGLIIKNPELFRTYSGPDFFQIYPNGDQVHGVLVVYICREFHGELVCDHTESKELRFFSLDELPNNLPPVIEKIITDYLKK")
"not soluble"
>>> reported_measurement("MSKQENIISHNTDSSLLNTVMQQMKERIINEGDKPHVTVETQLKILQELSQFGFGQFLIKNQGINGYWTHYMLTHPWFGRKTGLNNSREPLSNMECFLLDKAPTMLATQQRFELFLQENQKALVNGATLASIPCGMLGELLYLDFNGINNIQLMGIDYDQAALEDANALAKERNLDRFTTLVCRNAWELNIQEEFDLISSNGLNIYEPDDNKVLDLYQQFHTALKKGGKLVTSFLTPPPHLSSQCEWIFNKINPEDLLLQRIIFSDILNAKFQCYRSSQQTQKQLALAGFKNIHFLYDEAHLFPTVIAEK")
"not soluble"
>>> reported_measurement("MNMAEVSKNQVEKALETVIYPGSGKNIVALGMVSEIFIADAKAYFSITVPADKASEMEPLRLAAERAAKSVEGIAGAVVALTADRKPGQQQPAPAGPTPARPAAATGRPAAAPGRPTPQPGSSKVGVPGVRAIIAVASGKGGVGKSTTAVNLALGLQALGLKVGMLDADIYGPSLPRLLKISGRPKQQEDRIILPMENYGLKVMSMGFLVDEEAAMIWRGPMVQSALMQMLREVAWGELDVLVLDMPPGTGDAQLTIAQQVPLAGAVIVSTPQDLALLDARKGITMFRKVEVPLLGVIENMSYFIAPDTGARYDIFGHGGAKAEAERIGVPFLGEVPLTISIREMSDAGTPVVVAEPDGPQAAIYREIAEKVWARMGADERKAAPKIVFELEHHHHHH")
"not soluble"
>>> reported_measurement("MDKEKVLDKIKKCLALGRSVNEHEAAQALRQAQALMEKYKVNAEDIALSKVSEQKADRKMAFKLAGWQWGVANMIADIFGCKSYQRGKTMMFYGIGNRAETSAYAFDVVYRQISADRRKFLKTCRAGKPSHRTYLADRFCGGWIASAWETVKKFEMSDEEKAIMDGYKKKEYPDMAEARTRDAKSSILQGSKMEYEALTRGMESGKQVKLHYAVNGTGFVKQIGGQT")
"not soluble"
>>> reported_measurement("MGSDKIHHHHHHMGGAALPDNGWPADRIDTESAHSARIYDYIIGGKDYYPADKEAGDAMSREWPALPVHMRANRDWMNRAVAHLAKEAGIRQFLDIGTGIPTSPNLHEIAQSVAPESRVVYVDNDPIVLTLSQGLLASTPEGRTAYVEADMLDPASILDAPELRDTLDLTRPVALTVIAIVHFVLDEDDAVGIVRRLLEPLPSGSYLAMSIGTAEFAPQEVGRVAREYAARNMPMRLRTHAEAEEFFEGLELVEPGIVQVHKWHPDAATADGIRDEDIAMYGAVARKP")
"not soluble"
>>> reported_measurement("MSLKILIIEDDLALARSISHNLHDLGHFCEIISSISEENKEPYDVILVSSKVCTQGRCEHFVRYNSKQIIIMMASHVNEDGVNKPIQAGARDYILKPFKMDELLRKIQYHKAYQEMTARLGFYENYLDFIHAELPLPKDFSYRPPFIIHTPSQELANAYLLQYAKERQMDFSFFSLKDTTWKELYKNKDKLERPFYIMHLEELKKDEQLKLLELARSCPIVLSYTHKEPLEFPKIVSIECGNKPLSLFNNHTTFLSIQEYEKEAIRHFSSTCTDTELANKLGISRKSLWEKRRKYNLPREGHHHHHH")
"soluble"
>>> reported_measurement("MASENNGSRSDSESITAPKADSTVVEPRKIALITGITGQDGSYLTEFLLGKGYEVHGLIRRSSNFNTQRINHIYIDPHNVNKALMKLHYADLTDASSLRRWIDVIKPDEVYNLAAQSHVAVSFEIPDYTADVVATGALRLLEAVRSHTIDSGRTVKYYQAGSSEMFGSTPPPQSETTPFHPRSPYAASKCAAHWYTVNYREAYGLFACNGILFNHESPRRGENFVTRKITRALGRIKVGLQTKLFLGNLQASRDWGFAGDYVEAMWLMLQQEKPDDYVVATEEGHTVEEFLDVSFGYLGLNWKDYVEIDQRYFRPAEVDNLQGDASKAKEVLGWKPQVGFEKLVKMMVDEDLELAKREKVLVDAGYMDAKQQPLEHHHHHH")
"soluble"
>>> reported_measurement("TRGHGLFRITLVERDGPVGAGIAYATREAEHLLNTRVHNMSAFPDRPDHFRQWLAAEPEGRFSTGDSFVPRGLYRRYLEEILAPWRAGAQLTCVGGECLRIEEVGRGVIAHFSDGSVRLADVAILATGHPRPDPAEDRLLQDPWRAADVPPDARVVLLGSGLTMIDKVLTLLANGHRGEI")
"not soluble"
>>> reported_measurement("MTSTFLYKFYPNYNAKNCGDRMPKLMLALDVLDRDRALKIVEDVKDYVDAIKVGYPLVLSTGTEIIKEIKKLCNKEVIADFKVADIPATNEKIAKITLKYADGIIVHGFVGEDSVKAVQDVAKKLNKKVIMVTEMSHPGAVQFLQPIADKLSEMAKKLKVDAIVAPSTRPERLKEIKEIAELPVITPGVGAQGGKIEDILNILDENDYVIVGRAIYQSQNPKEEAKKYKEMLNK")
"soluble"
>>> reported_measurement("MYLKARQDELTESTIQSQEYRLEAFEQFCREEGIENLNDLSGRDLYAYRVWRREGNGKGRDEIEPITLRGQLATVRSFLRFAAEVDAVPEDLRTKVPLPTILEHHHHHH")
"not soluble"
>>> reported_measurement("MHHHHHHSSGVDLGTENLYFQSMGEVVMSQAIQPAHATARGELSAGQLLKWIDTTACLAAEKHAGVSCVTASVDDIQFEETARVGQVITIKAKVTRAFSTSMEISIKVMVQDMLTGIEKLVSVAFSTFVAKPVGKEKIHLKPVTLLTEQDHVEHNLAAERRKVRLQHEDTFNNLMKESSKFDDLIFDEEEGAVSTRGTSVQSIELVLPPHANHHGNTFGGQIMAWMETVATISASRLCWAHPFLKSVDMFKFRGPSTVGDRLVFTAIVNNTFQTCVEVGVRVEAFDCQEWAEGRGRHINSAFLIYNAADDKENLITFPRIQPISKDDFRRYRG")
"soluble"
>>> reported_measurement("MAHELQLIKQSSGILIPATPETSEILQSKIKLGAVLVAEFRQVRNPAFHRRFFALLNLGFEYWEPTGGAISANERKLVNGYAKFLAAYGGNESALLDAAEQYLEQIANRRVTNGISLCKSFDAYRAWVTVEAGHYDAIQLPDGTLRKHPRSIAFSSMDEVEFQQLYKSALDVLWRWILSRTFRTQREAENAAAQLMSWAG")
"not soluble"
